Experiment: chemical genetic growth profiling, strain panel (AID 1159580);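 also: tested at 20 µM; growth read once vehicle control cultures reached saturation at 30 °C; 1 = growth at the plate median or of vehicle wells; lower values mean less growth of the strain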
Conditions: S. cerevisiae deletion strains, growth OD, locus YGR078C, strain PAC10, active compounds read low
The whole screen tested about 5,500 compounds, of which about 2,000 (36%) were called active. Another 18% or so got no clear call; they are omitted. The list shows a part of the results.
Recorded endpoint: normalized growth
Lab note: jot down the number only; don't add units.

Answered cases to consult:
Exam item: I have this compound here, `COC(=O)c1sccc1-c1ccc(C(C)=O)o1` , and I need its recorded normalized growth.
Marked response: 0.947

Exam item: I have this compound here, `CC1(C)O[C@H]2[C@H](O)C[C@](O)(C(N)=O)C[C@H]2O1` , and I need its recorded normalized growth.
Marked response: 1.04

Exam item: I have this compound here, `CCCN1CCC[C@H](c2cccc(O)c2)C1` , and I need its recorded normalized growth.
Marked response: 1.01

Exam item: I have this compound here, `CCCCOC(=O)c1ccc(N)cc1` , and I need its recorded normalized growth.
Marked response: 0.89

Exam item: I have this compound here, `CCC(C)(C)C(=O)O[C@H]1C[C@@H](C)C=C2C=C[C@H](C)[C@H](CC[C@@H]3C[C@@H](O)CC(=O)O3)[C@H]21` , and I need its recorded normalized growth.
Marked response: 0.966

---
Exam item: I have this compound here, C=CC(N)CCC(=O)O (centres undefined) , and I need its recorded normalized growth.
Marked response: 0.987

Exam item: I have this compound here, `Nc1ccc(N=Nc2ccc(S(N)(=O)=O)cc2)c2ccccc12` , and I need its recorded normalized growth.
Marked response: 1

Exam item: I have this compound here, `CCCn1c(=O)c(C#N)cn(-c2ccc(Cl)cc2)c1=O` , and I need its recorded normalized growth.
Marked response: 0.996

Exam item: I have this compound here, OC(CN1CCN(c2nc3ccc(Cl)cc3s2)CC1)CN1CCCN(c2ncc(C(F)(F)F)cc2Cl)CC1 (centres undefined) , and I need its recorded normalized growth.
Marked response: 1.02

Exam item: I have this compound here, CCN1C[C@]2(C)CC[C@H](O)[C@@]34C5C[C@@H]6[C@@H](OC)C[C@@](O)(C5[C@H]6O)[C@@H](CC23)C14 (some centres undefined) , and I need its recorded normalized growth.
Marked response: 0.999

Exam item: I have this compound here, `CCCCOC(=O)c1ccccc1C(=O)OCc1ccccc1` , and I need its recorded normalized growth.
Marked response: 0.97

Exam item: I have this compound here, `N#CC(C#N)=Cc1ccc(-c2cc(C(F)(F)F)ccc2Cl)o1` , and I need its recorded normalized growth.
Marked response: 1.01

Exam item: I have this compound here, `O=C(O)CN(CC(=O)O)Cc1cc2c(-c3ccccc3C(=O)O)c3cc(CN(CC(=O)O)CC(=O)O)c(=O)cc-3oc2cc1O` , and I need its recorded normalized growth.
Marked response: 0.997

Exam item: I have this compound here, `CC(/C=N\O)=N/Nc1ccccc1` , and I need its recorded normalized growth.
Marked response: 0.961

---

Assay: chemical genetic growth profiling, strain panel (AID 1159580);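 also: tested at 20 µM; growth read once vehicle control cultures reached saturation at 30 °C; 1 = growth at the plate median or of vehicle wells; lower values mean less growth of the strain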
Details: S. cerevisiae deletion strains, growth OD, locus YDR502C, strain sam2, active compounds read low
About 2,000 (36%) of roughly 5,500 compounds were called active. Roughly 18% stayed inconclusive and do not appear here. The list shows a part of the results.
Listed next: entries and their corresponding normalized growth.
Lab note: jot down the number only; don't add units.

Exam item: I have this compound here, C=C1CCC(=O)C(C)CCC2C1CC2(C)C (centres undefined) , and I need its recorded normalized growth.
Marked response: 1

Exam item: I have this compound here, `CCOC(=O)[C@H](CCc1ccccc1)N[C@@H](C)C(=O)N1[C@H](C(=O)O)C[C@@H]2CCC[C@@H]21` , and I need its recorded normalized growth.
Marked response: 1.01

Exam item: I have this compound here, `Cc1cccc(C)c1NC1=NCCCS1` , and I need its recorded normalized growth.
Marked response: 0.991

Next:
Exam item: I have this compound here, O=C(C1CCCCC1)N1CC(=O)N2CCc3ccccc3C2C1 (centres undefined) , and I need its recorded normalized growth.
Marked response: 1.01

---

Listed next: entries and their corresponding normalized growth.
Assay: chemical genetic growth profiling, strain panel (AID 1159580);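 also: tested at 20 µM; growth read once vehicle control cultures reached saturation at 30 °C; 1 = growth at the plate median or of vehicle wells; lower values mean less growth of the strain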
Conditions: S. cerevisiae deletion strains, growth OD, locus YHR030C, strain SLT2, active compounds read low
Out of some 5,500 compounds screened, about 2,000 (36%) were called active. Roughly 18% stayed inconclusive and do not appear here. The list shows a part of the results.
Lab note: jot down the number only; don't add units.

Exam item: I have this compound here, COc1ccc2c(c1O)OCC1c3cc4c(cc3OC21)OCO4 (stereo not drawn) , and I need its recorded normalized growth.
Marked response: 1

Exam item: I have this compound here, C=C1CCC(=O)C(C)CCC2C1CC2(C)C (stereo not drawn) , and I need its recorded normalized growth.
Marked response: 1.02

Exam item: I have this compound here, `CC(=O)N[C@@H](CS)C(=O)O` , and I need its recorded normalized growth.
Marked response: 1.01

Exam item: I have this compound here, `COc1ccc2c(c1)O[C@H]1c3ccc(OC)cc3OC[C@@H]21` , and I need its recorded normalized growth.
Marked response: 0.977

Exam item: I have this compound here, `O=C1OC2(c3ccc(O)cc3Oc3cc(O)ccc32)c2ccccc21` , and I need its recorded normalized growth.
Marked response: 0.978

---
Exam item: I have this compound here, `COC(=O)C[C@H]1C(C)(C)C(=O)[C@@H]2CC3=C(CC[C@]4(C)C3=CC(=O)O[C@H]4c3ccoc3)[C@@]1(C)C2=O` , and I need its recorded normalized growth.
Marked response: 0.985

Exam item: I have this compound here, C=C1CCC(C2CC(=O)OC2=O)C(=O)CCC2C1CC2(C)C (stereo not drawn) , and I need its recorded normalized growth.
Marked response: 0.975

---

Test: chemical genetic growth profiling, strain panel (AID 1159580);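 also: tested at 20 µM; growth read once vehicle control cultures reached saturation at 30 °C; 1 = growth at the plate median or of vehicle wells; lower values mean less growth of the strain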
Settings: S. cerevisiae deletion strains, growth OD, locus YDL040C, strain nat1
Out of some 5,500 compounds screened, about 2,000 (36%) were called active. Another 18% or so got no clear call; they are omitted. Cut-off read from the data, not from the text of the source: active = normalized growth mostly below about 0.91 (no sharp cut-off); inconclusive = no clear call, values can overlap the other calls; inactive = mostly above about 0.92. The list shows a part of the results.
Could you please pick one outcome from this set? 1 (active), -1 (inactive)

Exam item: Lab log entry: `CCCCCCOc1ccccc1C(N)=O` — outcome as called in the assay?
Marked response: -1

Exam item: Lab log entry: `CCN(CC)C(=O)c1cccc(C)c1` — outcome as called in the assay?
Marked response: -1

Exam item: Lab log entry: `COc1cc([C@@H]2c3cc4c(c(O)c3C[C@H]3COC(=O)[C@@H]32)OCO4)cc(OC)c1OC` — outcome as called in the assay?
Marked response: -1

Exam item: Lab log entry: `CCCCOC(=O)c1ccc(N)cc1` — outcome as called in the assay?
Marked response: 1

Exam item: Lab log entry: `COc1cc2occ(-c3ccccc3)c(=O)c2c(OC)c1C` — outcome as called in the assay?
Marked response: -1

Exam item: Lab log entry: `COC(=O)C1=CCCN(C)C1` — outcome as called in the assay?
Marked response: -1

Exam item: Lab log entry: C[N+]1(C)C2CC(OC(=O)[C@@H](CO)c3ccccc3)CC1C1OC12 (some centres not stated) — outcome as called in the assay?
Marked response: -1

Exam item: Lab log entry: `COc1ccc(-c2coc3cc(OC)cc(OC)c3c2=O)cc1` — outcome as called in the assay?
Marked response: -1

Exam item: Lab log entry: `CCN(CC)CCOC(=O)c1ccc(N)cc1` — outcome as called in the assay?
Marked response: -1

Exam item: Lab log entry: O=C1CC2OCC=C3CN4CC[C@]56c7ccccc7N1C5[C@H]2[C@H]3CC46 (some centres not stated) — outcome as called in the assay?
Marked response: -1

---
Exam item: Lab log entry: `OC(Cn1cncn1)(Cn1cncn1)c1ccc(F)cc1F` — outcome as called in the assay?
Marked response: -1

Exam item: Lab log entry: `CCCCC(=O)Oc1ccccc1C(=O)O` — outcome as called in the assay?
Marked response: -1

Exam item: Lab log entry: `Oc1ccc(Cl)cc1Cc1cc(Cl)ccc1O` — outcome as called in the assay?
Marked response: 1

Exam item: Lab log entry: O=C1[C@H](CCC(O)c2ccc(F)cc2)[C@@H](c2ccc(O)cc2)N1c1ccc(F)cc1 (some centres not stated) — outcome as called in the assay?
Marked response: -1

Exam item: Lab log entry: `CCCCNc1ccc(C(=O)OCCN(C)C)cc1` — outcome as called in the assay?
Marked response: -1

Exam item: Lab log entry: C[C@@H]1C(=O)OC2[C@H](O)C34[C@@H]5OC(=O)[C@@]3(O[C@@H]3OC(=O)[C@H](O)[C@@]34[C@H](C(C)(C)C)[C@H]5O)[C@]21O (some centres not stated) — outcome as called in the assay?
Marked response: -1

Exam item: Lab log entry: CO/N=C(\C(=O)NC1C(=O)N2C(C(=O)O)=C(COC(N)=O)CSC12)c1ccco1 (configuration not stated) — outcome as called in the assay?
Marked response: -1

Exam item: Lab log entry: `CCCCN(CCCC)CCCOC(=O)c1ccc(N)cc1` — outcome as called in the assay?
Marked response: -1

Exam item: Lab log entry: `COc1cc(-c2coc3cc(OC)c(OC)c(OC)c3c2=O)cc(OC)c1OC` — outcome as called in the assay?
Marked response: -1
